- TEST_TARGET: T1, ARHGAP21, Q5T5U3
- T1 sequence (Q5T5U3 45-169, limits assumed, looked up): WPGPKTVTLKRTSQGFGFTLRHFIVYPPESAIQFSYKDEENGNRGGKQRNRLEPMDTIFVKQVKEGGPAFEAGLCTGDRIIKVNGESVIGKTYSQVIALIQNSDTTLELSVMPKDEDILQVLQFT
- ASSAY_COMMENT: holdup assay
- Set-up: key: below the threshold = too weak to quantify, mostly under pKd 3.1 to 4
- CONDITION_NOTES: plain residues with an end cap or a label only (N-terminal biotin on a linker: ado-ado)
OBSERVED_PROPERTY: pKd

BINDER: NISARRFTLC [FAM167B, Q9BTA0]
TEST_RESULT: below the threshold
--
BINDER: KPDKQEEFYA [SDC3, O75056]
TEST_RESULT: below the threshold
--
BINDER: DLLGGGSDSI [TNRC6B, Q9UPQ9]
TEST_RESULT: below the threshold

Reference source for all entries: paper PMC9482650
